molecular target: mMATE1 (Mus musculus, UniProt Q8K0H1); construct: expressed in transfected cells; host or cells: HEK293; test: Inhibition of RI-labeled TEA uptake in HEK293 cells expressing mMATE1; assay type: cell-based; settings: HEK293, pH 8, read-out: TEA uptake activity percent taking the level with addition of no compound as 100% (% ± S.D.);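 note: transfected HEK293 cells held 5 min at 37 °C before tracer addition, uptake read as radioactivity retained on a 0.45-µm membrane filter, mean ± SD of three to nine experiments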
Sequence (Q8K0H1 with tags, fused parts or gaps): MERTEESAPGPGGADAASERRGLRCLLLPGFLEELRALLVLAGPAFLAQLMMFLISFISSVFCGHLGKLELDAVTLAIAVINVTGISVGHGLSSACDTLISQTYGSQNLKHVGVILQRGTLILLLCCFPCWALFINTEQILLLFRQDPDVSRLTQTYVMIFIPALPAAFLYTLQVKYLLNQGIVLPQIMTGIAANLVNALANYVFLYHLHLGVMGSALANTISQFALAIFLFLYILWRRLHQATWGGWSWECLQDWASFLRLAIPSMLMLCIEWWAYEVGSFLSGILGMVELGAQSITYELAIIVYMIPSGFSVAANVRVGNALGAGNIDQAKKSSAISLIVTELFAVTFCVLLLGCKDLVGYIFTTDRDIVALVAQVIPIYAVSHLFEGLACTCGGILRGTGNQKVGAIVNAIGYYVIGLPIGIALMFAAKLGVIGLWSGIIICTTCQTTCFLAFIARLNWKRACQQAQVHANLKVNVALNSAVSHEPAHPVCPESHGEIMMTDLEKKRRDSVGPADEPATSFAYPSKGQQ
The reader will find reported remaining activity at 100 µM values listed item by item below.

molecule: CCN(CC)CCNC(=O)c1ccc(N)cc1 [Procainamide]
target_under_test: mMATE1 (Mus musculus, UniProt Q8K0H1)
remaining activity at 100 µM (%): 65.7
//
molecule: COc1ccc2[nH]cc(CCNC(C)=O)c2c1
target_under_test: mMATE1 (Mus musculus, UniProt Q8K0H1)
remaining activity at 100 µM (%): 51.4
//
molecule: C[C@]12CC[C@H]3[C@@H](CCC4=CC(=O)CC[C@@]43C)[C@@H]1CC[C@@H]2O
target_under_test: mMATE1 (Mus musculus, UniProt Q8K0H1)
remaining activity at 100 µM (%): 11.5
//
molecule: C[C@]12CCC(=O)C=C1CC[C@@H]1[C@@H]2CC[C@]2(C)C(=O)CC[C@@H]12
target_under_test: mMATE1 (Mus musculus, UniProt Q8K0H1)
remaining activity at 100 µM (%): 8.6

* * *

biological target: hMATE1 (Homo sapiens, UniProt Q96FL8); settings: read-out: Km value of transport; substrate transport, cells expressing wild type MATE1 (TEA: FIG. 9(c)); MPP: MATE1, species not stated
Sequence (Q96FL8 whole entry): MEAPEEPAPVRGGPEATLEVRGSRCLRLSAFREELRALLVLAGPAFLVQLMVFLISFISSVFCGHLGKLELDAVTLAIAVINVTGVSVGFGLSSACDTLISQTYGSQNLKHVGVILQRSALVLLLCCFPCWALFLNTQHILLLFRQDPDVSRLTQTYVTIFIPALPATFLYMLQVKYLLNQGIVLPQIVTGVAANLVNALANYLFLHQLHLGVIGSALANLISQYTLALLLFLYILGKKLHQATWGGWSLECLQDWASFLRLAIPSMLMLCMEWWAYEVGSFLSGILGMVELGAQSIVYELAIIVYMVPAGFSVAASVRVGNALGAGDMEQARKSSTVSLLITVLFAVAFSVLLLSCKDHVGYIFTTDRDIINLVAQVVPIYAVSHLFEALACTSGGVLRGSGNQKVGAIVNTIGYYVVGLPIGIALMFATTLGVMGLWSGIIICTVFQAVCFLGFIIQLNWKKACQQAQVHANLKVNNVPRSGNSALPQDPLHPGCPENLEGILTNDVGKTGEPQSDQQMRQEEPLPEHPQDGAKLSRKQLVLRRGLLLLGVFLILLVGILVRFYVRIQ
quantity_name: Km (µM)

compound: C[n+]1ccc(-c2ccccc2)cc1 [MPP, 1-methyl-4-phenylpyridinium]
reported_result: 16
//
compound: CC[N+](CC)(CC)CC [TEA, tetraethylammonium]
reported_result: 220

* * *

biological target: hMATE1 (Homo sapiens, UniProt Q96FL8); test: Inhibition of RI-labeled TEA uptake in HEK293 cells expressing hMATE1; settings: MATE1 expressing HEK293 cells, 50 μM TEA, pH 8.0
quantity_name: Inhibition of TEA uptake activity (in words, summary of Table 1)

smiles_data: C[C@]12CC[C@@H](O)C[C@@H]1CC[C@@H]1[C@@H]2CC[C@]2(C)C(=O)CC[C@@H]12
reported_result: inhibited

smiles_data: C[n+]1ccc(-c2ccccc2)cc1
reported_result: inhibited

smiles_data: O=c1c(O)c(-c2ccc(O)c(O)c2)oc2cc(O)cc(O)c12
reported_result: inhibited

smiles_data: COc1ccc2[nH]cc(CCNC(C)=O)c2c1
reported_result: inhibited

smiles_data: C[C@]12CC[C@H]3[C@@H](CCC4=CC(=O)CC[C@@]43C)[C@@H]1CC[C@@H]2O
reported_result: inhibited

smiles_data: C=C[C@H]1C[N@@]2CC[C@H]1C[C@@H]2[C@@H](O)c1ccnc2ccc(OC)cc12
reported_result: strongly inhibited

smiles_data: CN/C(=N/CCSCc1nc[nH]c1C)NC#N
reported_result: strongly inhibited

smiles_data: C[C@]12C[C@H](O)[C@H]3[C@@H](CCC4=CC(=O)CC[C@@]43C)[C@@H]1CC[C@@H]2C(=O)CO
reported_result: inhibited

smiles_data: CC(=O)[C@H]1CC[C@H]2[C@@H]3CCC4=CC(=O)CC[C@]4(C)[C@H]3CC[C@]12C
reported_result: inhibited
